Values compiled from paper PMC10134273.

Experiment: Phase 1 plasma pharmacokinetics of EVER4010001
Format: in vivo, human
Settings: human, plasma, oral, Cycle 1, Day 8; 100 mg BID (N=7) + pembrolizumab; read-out: Geometric mean Cmax (geometric CV%)
Parameter measured: Cmax (ng/mL)
# unit: ng/mL | format: bare number

Request the reported Cmax associated with COCCNc1cc(NC(=O)N2CCCc3cc(CN4CCN(C)CC4=O)c(C=O)nc32)ncc1C#N [EVER4010001, roblitinib]
1330

---

Test: Phase 1 plasma pharmacokinetics of EVER4010001
Assay type: in vivo, human
Details: human, plasma, oral, Cycle 1, Day 8; 60 mg BID (N=3) + pembrolizumab; read-out: Geometric mean Cmax (geometric CV%)
Parameter measured: Cmax
Output should be the measured figure followed by the unit it is expressed in.

Request the reported Cmax associated with COCCNc1cc(NC(=O)N2CCCc3cc(CN4CCN(C)CC4=O)c(C=O)nc32)ncc1C#N [EVER4010001, roblitinib]
749 ng/mL

---

Experiment: Phase 1 plasma pharmacokinetics of EVER4010001
Type: in vivo, human
Conditions: human, plasma, oral, Cycle 1, Day 1; 80 mg BID (N=6) + pembrolizumab; read-out: Geometric mean Cmax (geometric CV%)
Parameter measured: Cmax (ng/mL)
# unit: ng/mL | format: bare number

Request the reported Cmax associated with COCCNc1cc(NC(=O)N2CCCc3cc(CN4CCN(C)CC4=O)c(C=O)nc32)ncc1C#N [EVER4010001, roblitinib]
897

---

Test: Phase 1 plasma pharmacokinetics of EVER4010001
Type: in vivo, human
Conditions: human, plasma, oral, Cycle 1, Day 1; 60 mg BID (N=3) + pembrolizumab; read-out: Geometric mean Cmax (geometric CV%)
Parameter measured: Cmax

Request the reported Cmax associated with `COCCNc1cc(NC(=O)N2CCCc3cc(CN4CCN(C)CC4=O)c(C=O)nc32)ncc1C#N`
958 ng/mL

---

Assay: Phase 1 plasma pharmacokinetics of EVER4010001
Type: in vivo, human
Settings: human, plasma, oral, Cycle 1, Day 8; 40 mg BID (N=3) + pembrolizumab; read-out: Geometric mean Cmax (geometric CV%)
Parameter measured: Cmax (ng/mL)
# unit: ng/mL | format: bare number

Request the reported Cmax associated with COCCNc1cc(NC(=O)N2CCCc3cc(CN4CCN(C)CC4=O)c(C=O)nc32)ncc1C#N [EVER4010001, roblitinib]
427

---

Assay: Phase 1 plasma pharmacokinetics of EVER4010001
Format: in vivo, human
Conditions: human, plasma, oral, Cycle 1, Day 1; 40 mg BID (N=3) + pembrolizumab; read-out: Geometric mean Cmax (geometric CV%)
Parameter measured: Cmax (ng/mL)
# unit: ng/mL | format: bare number

Request the reported Cmax associated with `COCCNc1cc(NC(=O)N2CCCc3cc(CN4CCN(C)CC4=O)c(C=O)nc32)ncc1C#N`
560

---

Assay: Phase 1 plasma pharmacokinetics of EVER4010001
Assay type: in vivo, human
Settings: human, plasma, oral, range across 40-100 mg BID dose levels (abstract); read-out: maximum observed concentration (Cmax)
Parameter measured: Cmax

Request the reported Cmax associated with COCCNc1cc(NC(=O)N2CCCc3cc(CN4CCN(C)CC4=O)c(C=O)nc32)ncc1C#N [EVER4010001, roblitinib]
606 to 1350 ng/mL

---

Experiment: Phase 1 plasma pharmacokinetics of EVER4010001
Format: in vivo, human
Settings: human, plasma, oral, Cycle 1, Day 1; 100 mg BID (N=7) + pembrolizumab; read-out: Geometric mean Cmax (geometric CV%)
Parameter measured: Cmax
Output should be the measured figure followed by the unit it is expressed in.

Request the reported Cmax associated with `COCCNc1cc(NC(=O)N2CCCc3cc(CN4CCN(C)CC4=O)c(C=O)nc32)ncc1C#N`
1340 ng/mL
